assayed-target: Solute carrier family 2, facilitated glucose transporter member 1 (Homo sapiens) (UniProt P11166)
Sequence (P11166 whole entry): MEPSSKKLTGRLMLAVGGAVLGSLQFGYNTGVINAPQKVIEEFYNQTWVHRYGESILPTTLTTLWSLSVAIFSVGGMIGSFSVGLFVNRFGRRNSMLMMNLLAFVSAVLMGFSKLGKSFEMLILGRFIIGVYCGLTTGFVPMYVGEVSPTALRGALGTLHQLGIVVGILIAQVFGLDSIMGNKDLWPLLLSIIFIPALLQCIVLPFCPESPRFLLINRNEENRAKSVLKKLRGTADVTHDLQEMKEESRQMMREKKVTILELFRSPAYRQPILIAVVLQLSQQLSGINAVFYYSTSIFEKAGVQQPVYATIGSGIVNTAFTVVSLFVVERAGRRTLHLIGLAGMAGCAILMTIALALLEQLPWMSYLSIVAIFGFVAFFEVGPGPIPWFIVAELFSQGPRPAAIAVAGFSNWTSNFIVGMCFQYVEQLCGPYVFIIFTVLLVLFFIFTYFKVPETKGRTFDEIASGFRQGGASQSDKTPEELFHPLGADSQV
protocol-summary: ST_JUDE_LEISH: Cytotoxicity at 2uM final concentration against transgenic Leishmania Mexicana promastigotes LmGLUT1 that are glucose transport deficient and complemented with the human glucose transporter GLUT1. Activity is measured by DNA content using SYBR green in vitro
Type: functional
outcome-measure: inhibition (%)
Number only, in %; omit the unit.

Consider the worked cases shown below.
O=C(Nc1cc(Cl)c(Cl)cc1NC(=O)c1cccc(-c2ccccc2)c1O)c1cccc(-c2ccccc2)c1O | 5.1
COc1ccc(-n2ccnc2SCC(=O)Nc2cc(Cl)ccc2OC)c(OC)c1 | 2.64
CN1CCCN(Cc2cccc(-c3ccc(NC(=O)c4ccc(Cl)cc4)cc3)c2)CC1 | 55.2

Recorded inhibition for "CCn1c(-c2nonc2N)nc2c(C#CC(C)(C)O)ncc(OCCNCCc3ccc(OC)cc3)c21" , please? 5.15

Recorded inhibition for "Clc1ccc(-c2ccc(C=NNc3nc(=Nc4ccccc4)[nH]c(=Nc4ccccc4)[nH]3)o2)cc1Cl" , please? -3.26

Recorded inhibition for "N#Cc1ccc(-c2ccc(C(=O)NCCCCN3CCC(c4cn(CCCO)c5ccccc45)CC3)cc2)cc1" , please? 2

Recorded inhibition for "CCOc1cc(NCCCNc2ncc([N+](=O)[O-])cc2C)nc2ccccc12" , please? 1.72

Recorded inhibition for "CC(C)CCNC(=O)c1cnc2c(O)cccc2c1Nc1cccc(NC(=O)c2ccc(F)cc2)c1" , please? 4.52

Recorded inhibition for "CNC(=O)c1cc(NCCCNCc2ccc(Cl)c(C(F)(F)F)c2)nc2ccccc12" , please? -1.98

---

Below: a set of entries, each annotated with reported inhibition.
assayed-target: Glucose transporter (Leishmania mexicana)
protocol-summary: ST_JUDE_LEISH: Cytotoxicity at 2uM final concentration against transgenic Leishmania Mexicana promastigotes LmGT2 that are glucose transport deficient and complemented with the L. Mexicana glucose transporter 2. Activity is measured by DNA content using SYBR green in vitro
Assay type: functional
Number only, in %; omit the unit.

Consider the worked cases shown below.
COc1ccc(NC(=O)c2cc(-c3ccc(NC(C)=O)cc3)cnc2N)cc1 | 0.5
CCOc1ccc(-c2nc(NC(=O)COc3ccc(OC)cc3)sc2C)cc1 | 10.1
COc1cccc2sc(Nc3nc(-c4ccccn4)cs3)nc12 | 2.52
O=C(Nc1ccc(-c2ccccc2)cc1)Nc1ccc2c(c1)CCNCC2 | -3.69
O=C(Nc1ccc2ccccc2c1)N(CCCn1ccnc1)Cc1csc(-c2ccc(CNCc3ccccc3)cc2)n1 | 1.63

Recorded inhibition for "Cn1ccc2c3c(N)nc(N)nc3ccc21" , please? 1.34

Recorded inhibition for "O=C(Nc1cccc(-c2nn3ccccc3c2-c2ccnc(Nc3cccc(-c4cnco4)c3)n2)c1)C1CCCCC1" , please? -0.16

Recorded inhibition for "CN1CCN(c2cc(-c3cccc(C(F)(F)F)c3)nc(-c3ccncc3)n2)CC1" , please? -2.16

Recorded inhibition for "CNC(=O)NC1=NC(C)(C)N(OCc2ccc(Cl)c(Cl)c2)C(NC(=O)NC)=N1" , please? 0.39

Recorded inhibition for COc1ccccc1N1CCN(C(C(=O)NCc2ccc3c(c2)OCO3)c2ccc3c(c2)OCCCO3)CC1 (stereo not given) , please? 3.62

Recorded inhibition for Cc1cc(CN2CCC(N3CC(c4ccccc4)(c4ccccc4)OCC3=O)C2)ccc1O (stereo not given) , please? -3.65

Recorded inhibition for "CC(C)Oc1ccc(CCCON2C(=N)N=C(N)NC2(C)C)cc1" , please? 19

Recorded inhibition for "COc1cc2nc(NCCc3cccc(Cl)c3)nc(NCc3ccccc3)c2cc1OC" , please? 1.06

Recorded inhibition for "O=C(Nc1ccc(Cn2ncc(N3CCCNCC3)c(Cl)c2=O)cc1)Nc1cc(Cl)cc(Cl)c1" , please? 0.75
